assay: Pharmacokinetic experiment in beagle dogs; assay type: in vivo; conditions: male, dog, plasma, IV, 1 mg/kg
Quick reference for AUC(0-t) among some compounds
experimentalReadout: AUC(0-t) (ng·h/mL)

> print(dat)
                                   compound  experimentalreadout  observedmeasurement
1  N#Cc1ccc2c(c1)COc1cc(C[C@@H](C#N)NC(=O)[C@@H]3CNCCCO3)c(F)cc1-2             AUC(0-t)                 4790
2  Cn1c(=O)oc2ccc(-c3ccc(C[C@@H](C#N)NC(=O)[C@@H]4CNCCCO4)cc3)cc21 [AZD7986, reference compound]             AUC(0-t)                 1410

----------
target: UniProt:P53634; test: In vitro enzyme activity experiment of rhCatC (AMC fluorescence assay); type: biochemical; settings: rhCatC enzyme, substrate H-Gly-Arg-AMC; read-out: Biological activity IC50
Sequence (P53634 25-134): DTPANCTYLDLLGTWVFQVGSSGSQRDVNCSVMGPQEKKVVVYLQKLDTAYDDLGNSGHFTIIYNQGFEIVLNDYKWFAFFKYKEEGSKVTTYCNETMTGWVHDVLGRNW
Sequence (P53634 231-394): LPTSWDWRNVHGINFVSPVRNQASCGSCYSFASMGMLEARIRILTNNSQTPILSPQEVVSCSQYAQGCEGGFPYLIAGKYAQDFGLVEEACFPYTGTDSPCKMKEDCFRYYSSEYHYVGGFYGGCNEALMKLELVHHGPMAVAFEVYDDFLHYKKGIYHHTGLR
Sequence (P53634 395-463): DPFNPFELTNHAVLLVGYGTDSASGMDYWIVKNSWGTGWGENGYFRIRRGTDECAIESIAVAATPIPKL
Structures can show the parent of a compound that is named as a salt.
Flag rule - IC50 less than 30 nM flags YES; the remaining entries get NO.

> print(dat)
                                   compound  classlabel
1  N#C[C@H](Cc1ccc2c(c1)OCCN(c1ccc(F)cc1)C2)NC(=O)C1(N)CCOCC1          NO
2  N#CC(Cc1ccc2c(c1)CCOc1cc(F)ccc1-2)NC(=O)C1(N)CCOCC1 (centres unmarked)          NO
3  N#Cc1cccc(N2Cc3cc(C[C@@H](C#N)NC(=O)C4(N)CCOCC4)ccc3C2=O)c1 [Compound 47, formate]         YES
4  N#CC(Cc1ccc2c(c1)CCCC2)NC(=O)[C@@H]1CNCCCO1 (some centres unmarked) [Compound 3, trifluoroacetate]          NO
5  N#CC(Cc1ccc2c(c1)COCc1cc(F)ccc1-2)NC(=O)C1(N)CCOCC1 (centres unmarked)         YES
6  N#C[C@H](Cc1ccc2c(c1)CN(c1ccc(F)cc1)C2)NC(=O)C1(N)CCOCC1         YES
7  N#CC(Cc1ccc2c(c1)CCC2)NC(=O)C1(N)CCOCC1 (centres unmarked)          NO
8  N#Cc1ccc2c(c1)COc1cc(CC(C#N)NC(=O)[C@@H]3CNCCCO3)ccc1-2 (some centres unmarked)          NO

----------
assay: Pharmacokinetic experiment in beagle dogs; assay type: in vivo; conditions: male, dog, plasma, PO, 2 mg/kg
// values below are reported bioavailability
experimentalReadout: bioavailability (%)

> print(dat)
                                   compound  experimentalreadout  observedmeasurement
1  N#Cc1ccc2c(c1)COc1cc(C[C@@H](C#N)NC(=O)[C@@H]3CNCCCO3)c(F)cc1-2 [Compound 14]      bioavailability                  100
2  Cn1c(=O)oc2ccc(-c3ccc(C[C@@H](C#N)NC(=O)[C@@H]4CNCCCO4)cc3)cc21 [AZD7986, reference compound]      bioavailability                  104

----------
Listing: Tmax of selected compounds
experiment: Pharmacokinetic experiment in beagle dogs; assay type: in vivo; conditions: male, dog, plasma, PO, 2 mg/kg
experimentalReadout: Tmax (h)

> print(dat)
                                   compound  observedmeasurement
1  Cn1c(=O)oc2ccc(-c3ccc(C[C@@H](C#N)NC(=O)[C@@H]4CNCCCO4)cc3)cc21 [AZD7986, reference compound]                 1.67
2  N#Cc1ccc2c(c1)COc1cc(C[C@@H](C#N)NC(=O)[C@@H]3CNCCCO3)c(F)cc1-2                 3.33

Values from patent US20240083888A1
